B1: library; numbered along this chain (parent)
chain: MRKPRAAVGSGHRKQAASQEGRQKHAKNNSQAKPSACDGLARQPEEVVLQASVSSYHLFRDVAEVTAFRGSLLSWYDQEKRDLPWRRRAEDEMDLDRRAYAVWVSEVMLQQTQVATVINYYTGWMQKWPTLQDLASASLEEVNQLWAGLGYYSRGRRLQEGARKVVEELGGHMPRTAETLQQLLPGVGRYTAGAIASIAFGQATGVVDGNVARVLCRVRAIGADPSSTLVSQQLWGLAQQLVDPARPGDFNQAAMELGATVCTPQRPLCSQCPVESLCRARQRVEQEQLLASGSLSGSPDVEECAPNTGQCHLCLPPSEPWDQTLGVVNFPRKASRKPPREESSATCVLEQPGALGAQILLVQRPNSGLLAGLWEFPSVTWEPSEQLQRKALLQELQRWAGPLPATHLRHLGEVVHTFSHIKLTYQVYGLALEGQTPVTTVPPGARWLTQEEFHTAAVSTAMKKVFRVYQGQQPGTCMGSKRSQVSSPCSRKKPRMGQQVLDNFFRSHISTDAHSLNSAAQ

# Variants of: B1
# procedure-details: 8OG:A repair function score (normalized; synonymous = 0, nonsense = -1) (normalized log-likelihood score); higher = more repair activity (WT-like);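 further: cells sorted at 72 h after reporter transfection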
# conditions-used: with 8OG:A DNA repair reporter (GFP) in HEK-293 MUTYH KO cells
For each of the variants below, state its 8OG:A repair function score.
Numbers only.

State recorded 8OG:A repair function score for all listed variants.
1. L361Y
2. G161P
3. Q286R
4. G479M
5. A194T

-0.508
-0.919
0.00446
-0.0116
-0.422

State recorded 8OG:A repair function score for all listed variants.
1. G236H
2. V206N
3. R340A
4. A223V

[-0.00754, -0.923, -0.0533, -0.38]
